Experiment: Metabolic stability in Sprague-Dawley rat liver microsomes assessed as parent compound remaining measured after 60 mins in presence of NADPH regenerating system by HPLC analysis
Format: ADME, Microsome
Details: read-out: Stability
MEASURE: remaining at 1 h (%)

>>> observed_result("O=C(N[C@H](Cc1ccccc1)C(=O)O)c1cccc(OCc2cccnc2)c1")
98

====

Target: Probable G-protein coupled receptor 132 (Homo sapiens)
Sequence (Q9UNW8 whole entry): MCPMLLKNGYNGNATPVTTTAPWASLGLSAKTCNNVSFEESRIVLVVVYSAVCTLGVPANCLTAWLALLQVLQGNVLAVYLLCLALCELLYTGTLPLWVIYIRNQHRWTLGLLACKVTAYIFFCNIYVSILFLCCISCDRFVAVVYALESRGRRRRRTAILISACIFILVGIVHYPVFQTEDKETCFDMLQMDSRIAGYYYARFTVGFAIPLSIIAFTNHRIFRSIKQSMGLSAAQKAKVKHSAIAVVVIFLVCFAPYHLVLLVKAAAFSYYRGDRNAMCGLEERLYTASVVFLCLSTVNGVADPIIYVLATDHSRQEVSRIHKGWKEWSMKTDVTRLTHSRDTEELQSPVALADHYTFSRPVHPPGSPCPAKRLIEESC
pEC50: −log10 of the molar value.
MEASURE: pEC50

>>> observed_result("O=C(N[C@H](Cc1ccccc1)C(=O)O)c1cccc(OCc2cccnc2)c1")
5.11

====

Test: Drug concentration in male C57BL/6N mouse plasma at 10 mg/kg, sc measured after 12 hrs by LC-MS analysis
Type: ADME, organism-based
MEASURE: concentration at 12 h (ng/mL)

>>> observed_result("O=C(N[C@H](Cc1ccccc1)C(=O)O)c1cccc(OCc2cccnc2)c1")
2.9
